run-description: Pharmacokinetic study in rats, individual prodrug IV or SC
Format: in vivo, Sprague-Dawley rats
test-parameters: male, Sprague-Dawley, plasma; rat, IV, dose 1.25 mg/kg; L-dopa and carbidopa in aqueous solution; read-out: Carbidopa AUCO-8 h

| smiles-structure | AUC |
| --- | --- |
| C[C@@](Cc1ccc(O)c(O)c1)(NN)C(=O)O | 860 ng·h/mL |

###

run-description: In vitro bioconversion study, skin homogenates (human)
Assay type: in vitro ADME
test-parameters: human skin homogenate 3 mg/mL, 37° C.

| compound | half-life at 2.5 ug/mL, h |
| --- | --- |
| C[C@@](Cc1ccc(OP(=O)(O)O)c(O)c1)(NN)C(=O)O [Carbidopa 4′-phosphate, Carbidopa 4′-monophosphate] | 2.3 |
| C[C@@](Cc1ccc(O)c(OP(=O)(O)O)c1)(NN)C(=O)O [Carbidopa 3′-phosphate, Carbidopa 3′-monophosphate] | 10 |
